Test system: XF 498 CNS
procedure details: NCI tumour cell line growth inhibition, 48 h
Listed next: entries and their corresponding TGI.

# molecule, bound sign, TGI (µM)
measured = [
    ("CC1(C)CCC(Sc2ccccc2)O1 (centres undefined)", ">", 100),
    ("N#C/C(=C\\c1ccncc1)c1csc2ccccc12", "=", 46.3),
    ("Cc1cc2ncn(-c3nc4ccccc4nc3C(C#N)S(C)(=O)=O)c2cc1C (centres undefined)", ">", 100),
    ("CCOC(=O)Cc1cc(OC)c(OC)cc1/C(Cl)=C(\\CO)c1ccc(OC)c(OC)c1", "=", 49.2),
]

---

Test system: A549 NSCLC
procedure details: NCI tumour cell line growth inhibition, 48 h; in the data active means GI50 below about 0.43 µM; inactive means the rest
Possible outcomes: class 1 (active), class 0 (inactive)

# compound, assigned label
records = [
    ("COc1ccc2nc3cc(Cl)ccc3c(NCCCNCCO)c2c1", "class 1"),
    ("COc1cc2c(c(OC)c1OC)-c1ccc(NN(C(=O)c3ccccc3)C(=O)c3ccccc3)c(=O)cc1[C@@H](NC(C)=O)CC2 (tested in a mixture with another compound)", "class 0"),
    ("O=C(Nc1ccc(Oc2ccc3nc(NC(=O)c4ccco4)[nH]c3c2)cc1)Nc1cc(C(F)(F)F)ccc1F", "class 0"),
    ("COc1cc(-c2cc(/C=C/C(=O)c3ccc(F)c(F)c3)[nH]n2)cc(OC)c1OC", "class 0"),
    ("COC1(CC[C@@H](C)COC2OC(CO)C(O)C(O)C2O)O[C@H]2C[C@H]3[C@@H]4CC=C5C[C@@H](OC6OC(CO)C(OC7OC(C)C(O)C(O)C7O)C(O)C6OC6OC(C)C(O)C(O)C6O)CC[C@]5(C)[C@H]4CC[C@]3(C)[C@H]2[C@@H]1C (stereo partly drawn)", "class 0"),
    ("COc1cc(CNCCCCCCN2C(=O)c3cccc4cccc(c34)C2=O)ccc1O", "class 0"),
    ("O=C(CS(=O)(=O)c1nc2ccccc2nc1-c1ccccc1)Nc1ccc(F)cc1", "class 0"),
    ("CSc1ccc(C2=C(c3ccccc3)C(=O)OC2)cc1", "class 0"),
]

---

Listed next: entries and their corresponding TGI.
Test system: HOP-62 NSCLC
procedure details: NCI tumour cell line growth inhibition, 48 h
assay endpoint: TGI

# smiles text, reported
rows = [
    ("N#C/C(=C\\c1ccncc1)c1csc2ccccc12", "63.3 µM"),
    ("Cc1ccc(/C=C2\\Sc3scc(-c4ccccc4)[n+]3C2=O)cc1", "> 100 µM"),
    ("CN(C)c1ccc(/C=C\\c2ccnc3ccccc23)cc1", "> 67.9 µM"),
    ("N#CCn1c(=O)c(Oc2ccc(F)cc2F)cc2cnc(NC3CCOCC3)nc21", "> 25 µM"),
    ("Clc1ccc(Cl)c(N=Nc2cc3c4c(c2)CCN4CCC3)c1", "> 10 µM"),
    ("O=C1c2ccccc2C(=O)c2cc3c(cc21)CS(=O)C3", "> 100 µM"),
    ("Clc1nccc2c(-c3csc(-c4c[nH]c5ccc(Br)cc45)n3)c[nH]c12", "7.24 µM"),
    ("CNC(=O)c1n[nH]n(C2CCCCC2)c1=S", "> 100 µM"),
    ("CCN(CC)c1ccc(/C=C/C(=O)c2ccc(Nc3nc(Nc4ccccc4)nc(Nc4ccccc4)n3)cc2)cc1", "28.1 µM"),
    ("O=C1N=C2SC=C(NC(=S)Nc3ccccc3)N2NC12c1ccccc1-c1ccccc12", "> 10 µM"),
    ("COCC(C)(C)N=CN1Cc2cc3ccccc3nc2C1", "> 100 µM"),
]

# credit: PubChem BioAssay (NCI)
